# SYSTEM TESTED: Translocator protein (Rattus norvegicus, UniProt P16257)
# Sequence (P16257 whole entry, looked up): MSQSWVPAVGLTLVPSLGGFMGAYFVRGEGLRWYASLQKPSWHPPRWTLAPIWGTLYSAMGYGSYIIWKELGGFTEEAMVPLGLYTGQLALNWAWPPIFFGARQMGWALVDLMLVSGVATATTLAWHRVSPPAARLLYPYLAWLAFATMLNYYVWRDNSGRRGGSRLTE
# ASSAY PROCEDURE: Inhibitory activity against specific binding of [3H]-CB 34 to peripheral benzodiazepine receptor in rat cortical membranes was evaluated
# Assay type: cell membranes, Membrane
Measured log10(IC50), listed per entry.
OBSERVATION TYPE: log10(IC50) (log10 of the value in µM)

# ENTRY SMILES, MEASURED NUMBER
measured = [
    ("Cc1c(C(=O)NCc2ccccc2)nc2ccccc2c1-c1ccccc1", 1.01),
    ("Cc1c(C(=O)NCc2ccccc2)nc2ccccc2c1-c1ccccc1F", 0.17),
    ("CN(Cc1ccccc1)C(=O)c1nc2ccccc2c(-c2ccccc2)c1CO", -2.06),
    ("O=C(NCc1ccccc1)c1cc(-c2ccccc2)c2ccccc2n1", 1.06),
    ("Cc1c(C(=O)N(Cc2ccccc2)Cc2ccccc2)nc2ccccc2c1-c1ccccc1", -1.96),
    ("Cc1c(C(=O)N(C)Cc2ccccc2)nc2ccccc2c1-c1ccccc1F", -2.66),
]

* * *

Measured pIC50, listed per entry.
# SYSTEM TESTED: Translocator protein (Rattus norvegicus, UniProt P16257)
# ASSAY PROCEDURE: Inhibitory activity against specific binding of [3H]-CB 34 to peripheral benzodiazepine receptor in rat cortical membranes was evaluated
pIC50: −log10 of the molar value.

# ENTRY SMILES, pIC50
data = [
    ("CCN(CC)Cc1c(C(=O)N(C)Cc2ccccc2)nc2ccccc2c1-c1ccccc1", 7.92),
    ("Cc1c(C(=O)N(C)Cc2ccccc2)nc2ccccc2c1-c1ccccc1", 8.34),
    ("CN(Cc1ccccc1)C(=O)c1nc2ccccc2c(-c2ccccc2)c1CCl", 9.35),
    ("CN(Cc1ccccc1)C(=O)c1cc(-c2ccccc2)c2ccccc2c1", 7.19),
    ("Cc1c(C(=O)N(C)Cc2ccccc2)cc2ccccc2c1-c1ccccc1", 8.01),
    ("CN(Cc1ccccc1)C(=O)c1cc(-c2ccccc2)c2ccccc2n1", 7.42),
    ("CCN(Cc1ccccc1)Cc1c(C(=O)N(C)Cc2ccccc2)nc2ccccc2c1-c1ccccc1", 7.89),
    ("Cc1c(C(=O)NCc2ccccc2)cc2ccccc2c1-c1ccccc1", 5.18),
    ("C#CCN(C)C(=O)c1nc2ccccc2c(-c2ccccc2)c1C", 7.49),
    ("O=C(NCc1ccccc1)c1cc(-c2ccccc2)c2ccccc2c1", 5.57),
]
